target: Protein arginine deiminase 4 (PAD4) (Homo sapiens, UniProt Q9UM07); assay: PAD4 ammonia release assay; format: biochemical; conditions: PAD4 ammonia release assay, BAEE substrate, 60 min at RT; read-out: Average IC50 Abs
Sequence (Q9UM07 whole entry): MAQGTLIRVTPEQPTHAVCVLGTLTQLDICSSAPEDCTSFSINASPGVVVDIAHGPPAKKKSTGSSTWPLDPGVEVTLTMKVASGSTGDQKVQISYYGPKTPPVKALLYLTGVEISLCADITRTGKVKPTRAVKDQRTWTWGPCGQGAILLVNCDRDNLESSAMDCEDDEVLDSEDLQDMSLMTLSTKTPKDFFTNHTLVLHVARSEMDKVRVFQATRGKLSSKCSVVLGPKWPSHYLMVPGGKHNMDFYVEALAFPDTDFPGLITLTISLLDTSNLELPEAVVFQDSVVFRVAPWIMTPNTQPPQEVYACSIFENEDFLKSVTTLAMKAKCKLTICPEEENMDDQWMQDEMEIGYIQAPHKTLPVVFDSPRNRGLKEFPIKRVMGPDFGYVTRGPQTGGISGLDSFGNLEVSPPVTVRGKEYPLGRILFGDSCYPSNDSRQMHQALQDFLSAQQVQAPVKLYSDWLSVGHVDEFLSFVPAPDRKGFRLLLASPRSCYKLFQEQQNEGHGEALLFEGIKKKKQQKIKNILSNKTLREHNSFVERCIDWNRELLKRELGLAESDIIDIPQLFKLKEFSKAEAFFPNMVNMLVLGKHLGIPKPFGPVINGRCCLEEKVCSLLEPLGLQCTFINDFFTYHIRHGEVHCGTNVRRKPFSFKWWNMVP

| Molecule | IC50 |
| --- | --- |
| CCC1CN(CC(C)(C)CO)c2cccc3cc(-c4nc5cc(C(=O)N6C[C@H]7CC[C@@H]6[C@@H]7N)cc(F)c5n4C)n1c23 (stereo partly shown) | 100 to 500 nM |
| COc1cc(C(=O)N2C[C@H](N)C[C@@H](C(F)(F)F)C2)cc2nc(-c3cc4cccc5c4n3CCN5CCCO)n(C)c12 | > 5000 nM |
| COc1cc(C(=O)N2C[C@H](N)C[C@@H](F)C2)cc2nc(-c3cc4cccc5c4n3CCN5CCCO)n(CC3CC3)c12 | ≤ 100 nM |
| CCn1c(-c2cc3cccc4c3n2C(C)CN4CCCO)nc2cc(C(=O)N3C[C@H]4CC[C@@H]3[C@@H]4N)cc(OC)c21 (stereo partly shown) | 100 to 500 nM |
| Cn1c(-c2cc3ccc4c(c3n2CC2CC2)CCN4)nc2cc(C(=O)N3C[C@H]4CC[C@@H]3[C@@H]4N)cc(F)c21 | 100 to 500 nM |
| CCC1C(=O)Nc2c(F)ccc3cc(-c4nc5cc(C(=O)N6C[C@H]7CC[C@@H]6[C@@H]7N)cc(F)c5n4C)n1c23 (stereo partly shown) | 500 to 5000 nM |
| COc1cc(C(=O)N2CCC[C@@H](N)C2)cc2nc(-c3cc4cccc5c4n3CCN5CCO)n(C)c12 | 500 to 5000 nM |

* * *

target: Protein arginine deiminase 4 (PAD4) (Homo sapiens); assay: PAD4 ammonia release assay; type: biochemical; settings: PAD4 ammonia release assay, BAEE substrate, 60 min at RT; read-out: Average IC50 Abs
pIC50: −log10 of the molar value.
Recorded measurements of pIC50, one per entry
Readout type: pIC50

| Molecule | Study system | Readout type | Recorded value |
| --- | --- | --- | --- |
| Cn1c(-c2cc3ccc4c(c3n2CC2CC2)NC(=O)C4(C)C)nc2cc(C(=O)N3C[C@H]4CC[C@@H]3[C@@H]4N)cc(F)c21 [Example 141] | Protein arginine deiminase 4 (PAD4) (Homo sapiens) | pIC50 | 5.30 to 6.30 |
| CCC1CN(CCCO)c2cccc3cc(-c4nc5cc(C(=O)N6C[C@H]7CC[C@@H]6[C@@H]7N)c(F)c(F)c5n4C)n1c23 (stereo partly shown) [Example 78] | Protein arginine deiminase 4 (PAD4) (Homo sapiens) | pIC50 | 5.30 to 6.30 |
| COc1cc(C(=O)N2CC[C@@H](N)C2)cc2nc(-c3cc4cccc5c4n3CCN5CCCO)n(C)c12 [Example 15] | Protein arginine deiminase 4 (PAD4) (Homo sapiens) | pIC50 | < 5.30 |
| Cn1c(-c2cc3ccc4c(c3n2CC2CC2)NCC4(C)C)nc2cc(C(=O)N3C[C@H]4CC[C@@H]3[C@@H]4N)cc(F)c21 [Example 142] | Protein arginine deiminase 4 (PAD4) (Homo sapiens) | pIC50 | 5.30 to 6.30 |
| CCC1CNc2cc(F)cc3cc(-c4nc5cc(C(=O)N6C[C@H]7CC[C@@H]6[C@@H]7N)cc(F)c5n4C)n1c23 (stereo partly shown) [Example 130] | Protein arginine deiminase 4 (PAD4) (Homo sapiens) | pIC50 | 6.30 to 7.00 |
| CCC1CN(CCC(N)=O)c2cccc3cc(-c4nc5cc(C(=O)N6C[C@H](N)C[C@@H](F)C6)cc(OC)c5n4C)n1c23 (stereo partly shown) [Example 94] | Protein arginine deiminase 4 (PAD4) (Homo sapiens) | pIC50 | ≥ 7.00 |
| COc1cc(C(=O)N2CC3C(N)C3C2)cc2nc(-c3cc4cccc5c4n3CCN5CCCO)n(CC3CC3)c12 (stereo not shown) [Example 54] | Protein arginine deiminase 4 (PAD4) (Homo sapiens) | pIC50 | < 5.30 |
